# System name: GST-HBx (genotype D); HBx-D (Hepatitis B virus)
# Construct: gene X; N-terminal GST tag kept (GST 26 kDa; GST-HBx 43 kDa), full-length HBx (154 aa), pGEX, E. coli BL21 (DE3), glutathione-Sepharose
# Procedure text: biochemical
# Design: Surface plasmon resonance imaging; GST-HBx injected over chip of photo-crosslinked FDA-approved drugs (PlexArray HT), Langmuir fit

Compound | System name | Unit spec | koff
Cc1cnc(C(=O)NCCc2ccc(S(=O)(=O)NC(=O)NC3CCCCC3)cc2)cn1 [Glipizide] | GST-HBx (genotype D); HBx-D (Hepatitis B virus) | s⁻¹ | 0.000203
CCCCC(=O)N(Cc1ccc(-c2ccccc2-c2nn[nH]n2)cc1)[C@H](C(=O)O)C(C)C | GST-HBx (genotype D); HBx-D (Hepatitis B virus) | s⁻¹ | 0.00017
CCOc1nc2cccc(C(=O)O)c2n1Cc1ccc(-c2ccccc2-c2nnn[nH]2)cc1 | GST-HBx (genotype D); HBx-D (Hepatitis B virus) | s⁻¹ | 0.00021
CC(C(=O)O)c1ccc(C(=O)c2cccs2)cc1 (stereo not shown) | GST-HBx (genotype D); HBx-D (Hepatitis B virus) | s⁻¹ | 0.000308
